Attribution: the supplement of paper PMC11208160

Assay: recombinant barcode read abundance after kanamycin selection (control-corrected) (log10(CPM+1)); higher = more efficient recombination; sequences stand for … in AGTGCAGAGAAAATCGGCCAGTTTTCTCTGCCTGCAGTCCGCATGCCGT…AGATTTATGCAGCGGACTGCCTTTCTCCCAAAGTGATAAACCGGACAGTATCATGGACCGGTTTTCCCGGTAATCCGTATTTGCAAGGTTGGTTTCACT; site = the 11-nt target;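 note: IS621 recombinase and bridge RNA in Escherichia coli cells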
Test readout: recombinant barcode read abundance (log10)
Numbers only.

Answer for every listed entry: what is its recombinant barcode read abundance (log10)? The entries follow.
1. CTGAGCCCTTGGGTTCTAACCTGTTGCAT (site CTGAGCCCTAT)
2. TCCAAACCTTGGGTTCTAACCTGTTGCGG (site TCCAAACCTCC)
3. TAGTGCTCTTGGGTTCTAACCTGTTGCCA (site TAGTGCTCTCG)
4. CCGCCTGCTTGGGTTCTAACCTGTTGCCT (site CCGCCCGCTAG)
5. CAATGGCCTTGGGTTCTAACCTGTTGCCT (site CAAGGGCCTAG)

OUTPUT:
1.09
2.04
0.0477
0.198
0.27

Answer for every listed entry: what is its recombinant barcode read abundance (log10)? The entries follow.
1. TAGTGCTCTTGGGTTCTAACCTGTTGCCA (site TAGTGCTCTTG)
2. TGGAGCCCTTGGGTTCTAACCTGTTGCAT (site TGGAGCCCTGT)
3. CTCCGCTCTTGGGTTCTAACCTGTTGCCT (site GTCCGCTCTAG)
4. ACTAGGACTTGGGTTCTAACCTGTTGCGA (site ACTAGGACTCC)
5. CTATGAACTTGGGTTCTAACCTGTTGCCA (site CTATGAACTTG)
6. AACCTTACTTGGGTTCTAACCTGTTGCCT (site ATCCTTACTAG)
7. ATGCAACCTTGGGTTCTAACCTGTTGCCT (site ATGCAAACTAG)
8. CCTGAGTCTTGGGTTCTAACCTGTTGCCT (site CCTGAGTCTAG)

OUTPUT:
1: 1.16; 2: 0.0522; 3: 0.0686; 4: 1.43; 5: 0.283; 6: 0.0245; 7: 0.216; 8: 1.01

Answer for every listed entry: what is its recombinant barcode read abundance (log10)? The entries follow.
1. GACTCTCCTTGGGTTCTAACCTGTTGCGT (site GACTCTCCTAG)
2. AATAGGACTTGGGTTCTAACCTGTTGCGC (site ATTAGGACTTC)
3. TAGCATGCTTGGGTTCTAACCTGTTGCAC (site TAGCATGCTAT)
4. CGCTCCTCTTGGGTTCTAACCTGTTGCCT (site CGCTCCTCTAG)
5. GCCGAGTCTTGGGTTCTAACCTGTTGCCT (site GCCGAGTCTAG)
6. GAGGGCCCTTGGGTTCTAACCTGTTGCCG (site GAGGGCCCTCT)

OUTPUT:
1: 0; 2: 0.0105; 3: 0.677; 4: 0.027; 5: 1.03; 6: 0.759

Answer for every listed entry: what is its recombinant barcode read abundance (log10)? The entries follow.
1. CGCCACACTTGGGTTCTAACCTGTTGCCT (site CGCCACACTAG)
2. AGGTACACTTGGGTTCTAACCTGTTGCAC (site TTCAGACCTAG)

OUTPUT:
0.296
0.0924
